Source: patent US20260200920A1

# SYSTEM_NAME: human recombinant kinase full-length AKT1 E17K (Homo sapiens, UniProt P31749, E17K)
# Construct: Purified human recombinant kinase full-length AKT1 E17K was expressed in insect cells
# Sequence (P31749 whole entry E17K): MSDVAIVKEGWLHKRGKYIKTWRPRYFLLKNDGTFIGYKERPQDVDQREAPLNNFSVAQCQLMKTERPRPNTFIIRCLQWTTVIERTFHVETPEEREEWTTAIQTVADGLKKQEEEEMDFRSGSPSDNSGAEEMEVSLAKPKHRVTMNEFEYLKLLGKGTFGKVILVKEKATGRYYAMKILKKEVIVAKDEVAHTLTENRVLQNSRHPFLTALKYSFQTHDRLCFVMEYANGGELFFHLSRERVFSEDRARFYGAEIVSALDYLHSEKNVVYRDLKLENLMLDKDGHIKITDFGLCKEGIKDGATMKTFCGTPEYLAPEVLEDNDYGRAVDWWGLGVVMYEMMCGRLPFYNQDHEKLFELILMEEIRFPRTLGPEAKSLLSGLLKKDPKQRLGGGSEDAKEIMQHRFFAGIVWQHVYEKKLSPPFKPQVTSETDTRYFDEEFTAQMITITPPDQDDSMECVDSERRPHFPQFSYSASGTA
# PROTOCOL_TEXT: AKT1 E17K kinase assay (TR-FRET, Lance)
# TEST_CONDITIONS: 0.6 nM AKT1 E17K, 50 nM Ulight-CREBtide, either 50 μM ATP or 2 mM ATP, 60 min at RT
# Procedure: AKT1 E17K kinase assay: Inhibitory effects of compounds on AKT1 E17K were undertaken in a 10-pt dose response kinase activity assay measuring phospho-peptide product formation based on TR-FRET signal as described in the following paragraph. Purified human recombinant kinase full-length AKT1 E17K was expressed in insect cells and activated in vitro by PDPK1. […] The fluorescence emissions at 620 nm and 665 nm after excitation at 350 nm was measured using Envision reader. […]
Attribute: IC50

Sample answers from the record:
# COMPOUND, TEST_READOUT, RESULT_VALUE
records = [
    ("Nc1ncccc1-c1nc2ccc(-c3ccccc3)nc2n1-c1ccc(C2CN(CC3CC4CC(C(=O)O)CC4C3)C2)cc1 (stereo not drawn) [Compound I-151]", "IC50", "< 500 nM"),
    ("Nc1ncccc1-c1nc2ccc(-c3ccccc3)nc2n1-c1ccc(C(=O)N[C@H]2CC[C@H](C(=O)O)CC2)nc1 [Compound I-19]", "IC50", "≥ 2000 nM"),
    ("CC(C)(C(=O)O)[C@@H]1CCN(Cc2ccc(-n3c(-c4cccnc4N)nc4ccc(-c5ccccc5)nc43)cc2)C1 (stereo in doubt) [Compound I-174]", "IC50", "500 to 2000 nM"),
    ("CC1(c2ccc(-n3c(-c4cccnc4N)nc4ccc(-c5ccccc5)nc43)cc2)CN(CC2CC3(C2)CC(C(=O)O)C3)C1 (stereo not drawn) [Compound I-155]", "IC50", "< 500 nM"),
    ("Nc1ncccc1-c1nc2cc(-c3ccc(F)cc3)cnc2n1-c1ccc(C2CN(C[C@H]3CC[C@H](C(=O)O)CC3)C2)cc1 [Compound I-67]", "IC50", "≥ 2000 nM"),
]

# next compound below
Entry Cc1cc(NC(=O)[C@H]2CC[C@H](C(=O)O)CC2)ccc1-n1c(-c2cccnc2N)nc2ccc(-c3ccccc3)nc21 [Compound I-102] ; assay system human recombinant kinase full-length AKT1 E17K (Homo sapiens, UniProt P31749, E17K); IC50 recorded at 500 to 2000 nM

----------
# SYSTEM_NAME: human recombinant kinase full-length AKT1 E17K (Homo sapiens, UniProt P31749, E17K)
# Construct: Purified human recombinant kinase full-length AKT1 E17K was expressed in insect cells
# PROTOCOL_TEXT: AKT1 E17K kinase assay (TR-FRET, Lance)
# TEST_CONDITIONS: 0.6 nM AKT1 E17K, 50 nM Ulight-CREBtide, either 50 μM ATP or 2 mM ATP, 60 min at RT
pIC50: −log10 of the molar value.
Attribute: pIC50

# COMPOUND, pIC50
records = [
    ("Nc1ncccc1-c1nc2ccc(-c3ccccc3)nc2n1-c1ccc(C2CCN(C[C@H]3CCC[C@@H](C(=O)O)C3)CC2)cc1 (stereo in doubt) [Compound I-191]", "5.70 to 6.30"),
    ("Nc1ncccc1-c1nc2ccc(-c3ccccc3)nc2n1-c1ccc(NC(=O)[C@H]2CC[C@H](C(=O)O)CC2)cc1 [Compound I-2]", "> 6.30"),
    ("Cc1nc(NC(=O)[C@H]2CC[C@H](C(=O)O)CC2)ccc1-n1c(-c2cccnc2N)nc2ccc(-c3ccccn3)cc21 [Compound I-130]", "≤ 5.70"),
    ("Nc1ncccc1-c1nc2ccc(-c3ccccc3)nc2n1-c1ccc(NC(=O)C2CCCC(C(=O)O)C2)nc1 (centres unmarked) [Compound I-11]", "> 6.30"),
    ("Nc1ncccc1-c1nc2ccc(-c3ccccc3)nc2n1-c1ccc(NC(=O)C23CCC(C(=O)O)(C2)C3)nc1 [Compound I-9]", "5.70 to 6.30"),
    ("CC1(C(=O)O)CCN(C(=O)c2ccc(-n3c(-c4cccnc4N)nc4ccc(-c5ccccc5)nc43)cn2)CC1 [Compound I-23]", "≤ 5.70"),
    ("CC(C)CN(Cc1ccc(-n2c(-c3cccnc3N)nc3ccc(-c4ccccc4)nc32)cc1)[C@H]1CC[C@H](C(=O)O)CC1 [Compound I-166]", "≤ 5.70"),
    ("Cc1nc(NC2CCC(C(=O)O)CC2)ccc1-n1c(-c2cccnc2N)nc2ccc(-c3ccccc3)nc21 (centres unmarked) [Compound I-109]", "5.70 to 6.30"),
]

Form: compound = CC(c1ccc(-n2c(-c3cccnc3N)nc3ccc(-c4ccccc4)nc32)cc1)N(C)[C@H]1CC[C@H](C(=O)O)CC1 (some centres unmarked) [Compound I-176] ; pIC50 = 5.70 to 6.30

Form: compound = CC(C)(C(=O)O)C1CCN(Cc2ccc(-n3c(-c4cccnc4N)nc4ccc(-c5ccccc5)nc43)cc2)CC1 [Compound I-92] ; pIC50 = ≤ 5.70

Form: compound = Cc1ccccc1-c1ccc2nc(-c3cccnc3N)n(-c3ccc(C4CN(C[C@H]5CC[C@H](C(=O)O)CC5)C4)cc3)c2n1 [Compound I-212] ; pIC50 = 5.70 to 6.30

Form: compound = Nc1ncccc1-c1nc2ccc(-c3ccccc3)nc2n1-c1ccc(C2CCN(CC3CCC(C(=O)O)CC3)C2)cc1 (centres unmarked) [Compound I-78] ; pIC50 = 5.70 to 6.30

Form: compound = Nc1ncccc1-c1nc2ccc(-c3ccccc3)nc2n1-c1ccc(NC(=O)[C@H]2CC[C@H](C(=O)O)CC2)nc1 [Compound I-10] ; pIC50 = > 6.30

Form: compound = Nc1ncccc1-c1nc2ccc(-c3ccccc3)nc2n1-c1ccc(C(=O)N2CCCC(C(=O)O)C2)cc1 (centres unmarked) [Compound I-21] ; pIC50 = ≤ 5.70

Form: compound = Nc1ncccc1-c1nc2ccc(-c3ccccc3)nc2n1-c1ccc(C(=O)N[C@H]2CC[C@@H](C(=O)O)CC2)cc1 [Compound I-17] ; pIC50 = 5.70 to 6.30

Form: compound = Nc1ncccc1-c1nc2ccc(-c3ccc(F)cc3)nc2n1-c1ccc(NC(=O)[C@H]2CC[C@H](C(=O)O)CC2)nc1 [Compound I-40] ; pIC50 = > 6.30

Form: compound = Nc1ncccc1-c1nc2ccc(-c3ccccc3)nc2n1-c1ccc(N[C@H]2CC[C@H](C(=O)O)CC2)nc1 (single isomer, unassigned) [Compound I-14] ; pIC50 = ≤ 5.70

Form: compound = CCN(Cc1ccc(-n2c(-c3cccnc3N)nc3ccc(-c4ccccc4)nc32)c(F)c1)[C@H]1CC[C@H](C(=O)O)CC1 [Compound I-163] ; pIC50 = ≤ 5.70

Form: compound = Nc1ncccc1-c1nc2ccc(-c3ccccc3)nc2n1-c1ccc(C2CCN(CC34CCC(C(=O)O)(CC3)CC4)CC2)cc1 [Compound I-195] ; pIC50 = 5.70 to 6.30

Form: compound = Nc1ncccc1-c1nc2ccc(-c3ccccc3)nc2n1-c1ccc(C2CN(CC3CCC(C(=O)O)CC3)C2)nc1 (centres unmarked) [Compound I-64] ; pIC50 = ≤ 5.70

Form: compound = Nc1ncccc1-c1nc2ccc(-c3ccccc3)nc2n1-c1ccc(C2CN(C[C@H]3CC[C@H](C(=O)O)CC3)C2)cc1 [Compound I-57] ; pIC50 = > 6.30

Form: compound = Cc1cc(CN(C)[C@H]2CC[C@H](C(=O)O)CC2)ccc1-n1c(-c2cccnc2N)nc2ccc(-c3ccccc3)nc21 [Compound I-178] ; pIC50 = ≤ 5.70

Form: compound = Nc1ncccc1-c1nc2ccc(-c3ccccc3)nc2n1-c1ccc(CNC(=O)C2CC(=O)CC(=O)C2)cc1 [Compound I-38] ; pIC50 = > 6.30

Form: compound = Nc1ncccc1-c1nc2ccc(-c3ccccn3)cc2n1-c1ccc(C2CN(C[C@H]3CC[C@H](C(=O)O)CC3)C2)cc1 [Compound I-68] ; pIC50 = ≤ 5.70

Form: compound = CC1(C)CC(C(=O)O)CCC1CN1CCC(c2ccc(-n3c(-c4cccnc4N)nc4ccc(-c5ccccc5)nc43)cc2)CC1 (centres unmarked) [Compound I-194] ; pIC50 = 5.70 to 6.30

Form: compound = Nc1ncccc1-c1nc2ccc(-c3ccccc3)nc2n1-c1ccc(N[C@H]2CC[C@@H](C(=O)O)CC2)nc1 (single isomer, unassigned) [Compound I-15] ; pIC50 = ≤ 5.70

----------
# SYSTEM_NAME: human recombinant kinase full-length AKT1 E17K (Homo sapiens, UniProt P31749, E17K)
# Construct: Purified human recombinant kinase full-length AKT1 E17K was expressed in insect cells
# PROTOCOL_TEXT: AKT1 E17K kinase assay (TR-FRET, Lance)
# TEST_CONDITIONS: 0.6 nM AKT1 E17K, 50 nM Ulight-CREBtide, either 50 μM ATP or 2 mM ATP, 60 min at RT
Attribute: IC50

Sample answers from the record:
# STRUCTURE_SMILES_STRING, SYSTEM_NAME, IC50
measured = [
    ("Nc1ncccc1-c1nc2ccc(-c3ccccc3)nc2n1-c1ccc(C(=O)N[C@H]2CC[C@@H](C(=O)O)CC2)nc1", "human recombinant kinase full-length AKT1 E17K (Homo sapiens, UniProt P31749, E17K)", "≥ 2000 nM"),
    ("Cc1cc(C2CN(C[C@H]3CC[C@@H](C(=O)O)CC3)C2)ccc1-n1c(-c2cccnc2N)nc2ccc(-c3ccccc3)cc21", "human recombinant kinase full-length AKT1 E17K (Homo sapiens, UniProt P31749, E17K)", "500 to 2000 nM"),
]

# next molecule below
Form: molecule = `CC1(c2ccc(-n3c(-c4cccnc4N)nc4ccc(-c5ccccc5)nc43)cc2)CN(C[C@H]2CC[C@H](C(=O)O)CC2)C1` ; IC50 = 500 to 2000 nM
